# Study System: BRM (Homo sapiens, UniProt P51531)
# Sequence (P51531 whole entry): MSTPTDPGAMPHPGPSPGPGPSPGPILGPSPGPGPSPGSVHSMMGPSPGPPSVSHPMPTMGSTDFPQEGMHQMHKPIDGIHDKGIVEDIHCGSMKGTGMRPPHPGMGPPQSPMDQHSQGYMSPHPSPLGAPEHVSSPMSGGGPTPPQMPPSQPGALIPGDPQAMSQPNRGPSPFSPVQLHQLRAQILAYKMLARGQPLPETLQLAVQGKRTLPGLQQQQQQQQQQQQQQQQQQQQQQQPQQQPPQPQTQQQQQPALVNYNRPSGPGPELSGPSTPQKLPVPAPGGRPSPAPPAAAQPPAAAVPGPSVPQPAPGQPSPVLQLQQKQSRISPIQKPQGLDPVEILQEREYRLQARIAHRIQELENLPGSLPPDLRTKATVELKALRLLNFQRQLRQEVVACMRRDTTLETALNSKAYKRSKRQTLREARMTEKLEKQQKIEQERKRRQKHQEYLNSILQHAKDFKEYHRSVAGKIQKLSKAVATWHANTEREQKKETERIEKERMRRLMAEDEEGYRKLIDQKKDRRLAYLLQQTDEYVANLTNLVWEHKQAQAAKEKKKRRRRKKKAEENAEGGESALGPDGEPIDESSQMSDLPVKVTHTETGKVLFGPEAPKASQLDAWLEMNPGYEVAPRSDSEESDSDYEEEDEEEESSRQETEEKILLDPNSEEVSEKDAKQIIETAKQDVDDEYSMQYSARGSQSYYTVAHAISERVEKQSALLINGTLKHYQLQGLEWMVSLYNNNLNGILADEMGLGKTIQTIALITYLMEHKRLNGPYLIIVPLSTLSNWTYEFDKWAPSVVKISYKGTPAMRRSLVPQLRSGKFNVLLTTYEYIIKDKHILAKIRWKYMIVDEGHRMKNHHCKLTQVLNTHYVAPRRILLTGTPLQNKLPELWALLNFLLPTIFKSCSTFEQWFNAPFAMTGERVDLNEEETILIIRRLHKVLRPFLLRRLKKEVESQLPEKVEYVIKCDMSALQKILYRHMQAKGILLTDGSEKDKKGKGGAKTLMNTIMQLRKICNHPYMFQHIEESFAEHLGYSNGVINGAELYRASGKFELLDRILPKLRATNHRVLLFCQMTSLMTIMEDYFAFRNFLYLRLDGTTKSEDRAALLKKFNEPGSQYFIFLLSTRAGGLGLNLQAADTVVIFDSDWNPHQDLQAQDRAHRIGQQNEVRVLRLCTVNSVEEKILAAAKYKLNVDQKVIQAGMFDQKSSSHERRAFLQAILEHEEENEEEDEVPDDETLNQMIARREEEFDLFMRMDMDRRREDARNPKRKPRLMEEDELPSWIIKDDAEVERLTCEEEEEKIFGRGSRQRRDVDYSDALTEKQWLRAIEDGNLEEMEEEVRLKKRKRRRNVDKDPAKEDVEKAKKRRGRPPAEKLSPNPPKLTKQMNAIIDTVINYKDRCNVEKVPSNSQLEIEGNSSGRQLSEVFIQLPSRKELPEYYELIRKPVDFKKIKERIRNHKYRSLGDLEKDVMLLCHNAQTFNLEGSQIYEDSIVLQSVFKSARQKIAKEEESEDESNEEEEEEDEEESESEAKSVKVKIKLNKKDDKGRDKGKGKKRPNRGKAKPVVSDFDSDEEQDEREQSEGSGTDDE
# Assay Details: ATPase catalytic activity assay of BRM (ADP-Glo)
# Type: biochemical
Below is a list of entries, each paired with its recorded BRM Max % Inhibition value.
Experimental Readout: BRM Max % Inhibition

{"Line Notation": "C[C@@H]1CN(c2cccc(-c3csc(NC(=O)CNC(=O)c4cccc(C5(F)CC6(COC6)C5)c4)n3)n2)C[C@H](C)O1", "Experimental Readout": "BRM Max % Inhibition", "Measurement": ">90%"}
{"Line Notation": "C[C@@H]1CN(c2cccc(-c3csc(NC(=O)CNC(=O)c4cccc5c4OCC[C@]5(C)CO)n3)c2)C[C@H](C)O1", "Experimental Readout": "BRM Max % Inhibition", "Measurement": ">60%"}
{"Line Notation": "C[C@@]1(C#N)COCc2ccc(C(=O)NCC(=O)Nc3nc(-c4cc(F)c5c(c4)CCO5)cs3)cc21", "Experimental Readout": "BRM Max % Inhibition", "Measurement": ">95%"}
{"Line Notation": "CCc1ccc(C(=O)NCC(=O)Nc2nc(-c3cccc(-c4ccn(C)n4)c3)cs2)cc1C(C)(C)CN", "Experimental Readout": "BRM Max % Inhibition", "Measurement": ">70%"}

* * *

Below is a list of entries, each paired with its recorded IC50 value.
# Study System: BRM (Homo sapiens, UniProt P51531)
# Assay Details: ATPase catalytic activity assay of BRM (ADP-Glo)
# Assay type: biochemical
# Experimental Parameters: read-out: BRM IC50 (μM)*

{"Compound": "CC1(CN)CCc2ccc(C(=O)NCC(=O)Nc3nc(-c4cccc(-c5ccncc5)c4)cs3)cc21 (centres unmarked) [Compound 101]", "IC50": "0.1 to 1 µM"}
{"Compound": "CC(C)(/C(N)=N\\O)c1cccc(C(=O)NCC(=O)Nc2nc(-c3cccc(-c4ccncc4)c3)cs2)c1 [Compound 83]", "IC50": "1 to 5 µM"}
{"Compound": "O=C(CNC(=O)c1ccc2c(c1)[C@](F)(C(F)F)COC2)Nc1nc(-c2cc(F)cc(N3CCC3)c2)cs1 [Compound 276]", "IC50": "< 0.1 µM"}
{"Compound": "C[C@@H]1CN(c2cccc(-c3csc(NC(=O)CNC(=O)c4ccc5c(c4)[C@@H]([C@H](C)O)CC5)n3)n2)C[C@H](C)O1 [Compound 140]", "IC50": "0.1 to 1 µM"}
{"Compound": "C[C@]1(CO)CCc2ccc(C(=O)NCC(=O)Nc3nc(-c4ccn5ccnc5c4)cs3)cc21 [Compound 259]", "IC50": "1 to 5 µM"}
{"Compound": "COc1cccc(-c2csc(NC(=O)CNC(=O)c3cc(F)c4c(c3)C(C)(O)COC4)n2)c1 (stereo in doubt) [Compound 280]", "IC50": "0.1 to 1 µM"}
{"Compound": "COc1cc(F)cc(-c2csc(NC(=O)CNC(=O)c3ccc4c(c3)[C@](C)(F)COC4)n2)c1 [Compound 337]", "IC50": "< 0.1 µM"}
{"Compound": "Cc1cncc(-c2cccc(-c3csc(NC(=O)CNC(=O)c4ccc5c(c4)[C@@](C)(CO)CC5)n3)n2)n1 [Compound 164]", "IC50": "0.1 to 1 µM"}
{"Compound": "CC(C)S(=O)(=O)c1cccc(C(=O)NCC(=O)Nc2nc(-c3cccc(-c4ccnc(CO)c4)c3)cs2)c1 [Compound 26]", "IC50": "< 0.1 µM"}
{"Compound": "CC1OCCc2cc(C(=O)NCC(=O)Nc3nc(-c4cccc(N5C[C@@H](C)O[C@@H](C)C5)n4)cs3)ccc21 (some centres unmarked) [Compound 271]", "IC50": "0.1 to 1 µM"}
{"Compound": "CCS1(=O)=NCc2ccc(C(=O)NCC(=O)Nc3nc(-c4cccc(N5C[C@@H](C)O[C@@H](C)C5)c4)cs3)cc21 (some centres unmarked) [Compound 367]", "IC50": "0.1 to 1 µM"}
{"Compound": "Cc1cc(C(=O)NCC(=O)Nc2nc(-c3cccc(-c4ccncc4)c3)cs2)cc(C(C)(C)CN)c1C [Compound 97]", "IC50": "0.1 to 1 µM"}
{"Compound": "O=C(CNC(=O)c1ccc2c(c1)C1(CCNC1=O)CC2)Nc1nc(-c2cccc(-c3ccncc3)c2)cs1 (centres unmarked) [Compound 108]", "IC50": "0.1 to 1 µM"}
{"Compound": "Cc1ccc(C(=O)NCC(=O)Nc2nc(-c3cccc(-c4ccn(C)n4)c3)cs2)cc1C(C)(C)CN [Compound 70]", "IC50": "0.1 to 1 µM"}
